experimental details: Microsomal stability assay, hamster
Format: in vitro ADME
experimental context: hamster microsomal (S9) fractions, % remaining parent compound, UGT Enz. (Phase-II), 15 min
property measured: remaining at 0.25 h (%)

molecule: CCc1cn([C@@H]2O[C@H](CO)[C@@H](O)[C@H]2O)c2ncnc(C)c12 [compound 13]
unit abbrev: %
numeric value: 101
--
molecule: Cc1ncnc2c1c(Cl)cn2[C@@H]1O[C@H](CO)[C@@H](O)[C@H]1O [compound 7]
unit abbrev: %
numeric value: 96

----------
experimental details: Microsomal stability assay, hamster
Assay type: in vitro ADME
experimental context: hamster microsomal (S9) fractions, % remaining parent compound, UGT Enz. (Phase-II), 60 min
Examples of compounds with documented remaining at 1 h follow.

structure as smiles: Cc1ncnc2c1c(Cl)cn2[C@@H]1O[C@H](CO)[C@@H](O)[C@H]1O
unit abbrev: %
remaining at 1 h: 102
//
structure as smiles: CCc1cn([C@@H]2O[C@H](CO)[C@@H](O)[C@H]2O)c2ncnc(C)c12
unit abbrev: %
remaining at 1 h: 108
